Each record here notes measured pIC50.
molecular target: Bcr/Abl fusion protein (Homo sapiens, UniProt P00519, T315I); assay: Inhibition of wild type Bcr-Abl T315I mutant (unknown origin) incubated for 1 hr in presence of ATP by ADP-Glo kinase assay
Entry type: numeric. Quantity: pIC50, the -log10 of concentration in molar units.

mol	targetSystem	quantity	experimentalResult
C[C@H](NC(=O)c1ccc(-c2ccc(N)nc2)cc1)C(=O)Nc1ccc(Cl)c(C(F)(F)F)c1	Bcr/Abl fusion protein (Homo sapiens, UniProt P00519, T315I)	pIC50	5.12
Nc1ccc(-c2cccc(C(=O)N[C@H]3CN[C@@H](C(=O)Nc4ccc(Cl)c(C(F)(F)F)c4)C3)c2)cn1	Bcr/Abl fusion protein (Homo sapiens, UniProt P00519, T315I)	pIC50	3.99
CC(C)(C)C(=O)Nc1ccc(-c2cccc(C(=O)N[C@H]3CN[C@@H](C(=O)Nc4ccc(Cl)c(C(F)(F)F)c4)C3)c2)cn1	Bcr/Abl fusion protein (Homo sapiens, UniProt P00519, T315I)	pIC50	3.83
C[C@H](NC(=O)c1ccc(-c2cncc(C(=O)NCCN(C)C)c2)cc1)C(=O)Nc1ccc(Cl)c(C(F)(F)F)c1	Bcr/Abl fusion protein (Homo sapiens, UniProt P00519, T315I)	pIC50	5.64
CC(=O)Nc1ccc(-c2cccc(C(=O)N[C@H]3CN[C@@H](C(=O)Nc4ccc(Cl)c(C(F)(F)F)c4)C3)c2)cn1	Bcr/Abl fusion protein (Homo sapiens, UniProt P00519, T315I)	pIC50	4.61
CC(=O)Nc1ccc(-c2ccc(C(=O)N[C@H]3CN[C@@H](C(=O)Nc4ccc(Cl)c(C(F)(F)F)c4)C3)cc2)cn1	Bcr/Abl fusion protein (Homo sapiens, UniProt P00519, T315I)	pIC50	4.89

Next up:
Look at this compound and give its reported pIC50. "C[C@H](NC(=O)c1ccc(-c2ccc(NS(C)(=O)=O)nc2)cc1)C(=O)Nc1ccc(Cl)c(C(F)(F)F)c1"
5.00

###

biological target: Bcr/Abl fusion protein (Homo sapiens, UniProt P00519, T315I); assay: Inhibition of wild type Bcr-Abl T315I mutant (unknown origin) incubated for 1 hr in presence of ATP by ADP-Glo kinase assay
# pIC50 per record follows
Kindly note that pIC50 refers to -log10 of the concentration in mol/L and answer with the value alone.

mol	pIC50
C[C@H](NC(=O)c1ccc(-c2cncc(C(=O)NC3CC3)c2)cc1)C(=O)Nc1ccc(Cl)c(C(F)(F)F)c1	5.30
CS(=O)(=O)Nc1ccc(-c2cccc(C(=O)N[C@H]3CN[C@@H](C(=O)Nc4ccc(Cl)c(C(F)(F)F)c4)C3)c2)cn1	4.79
CC(=O)Nc1ccc(-c2ccc(C(=O)N[C@@H](C)C(=O)Nc3ccc(Cl)c(C(F)(F)F)c3)cc2)cn1	4.65

Pending compound:
What value of pIC50 has been reported for the following compound? "CCN(CC)C(=O)c1cncc(-c2ccc(C(=O)N[C@H]3CN[C@@H](C(=O)Nc4ccc(Cl)c(C(F)(F)F)c4)C3)cc2)c1"
4.30

###

Reported pIC50 values follow for various compounds
target: Bcr/Abl fusion protein (Homo sapiens); assay: Inhibition of wild type Bcr-Abl (unknown origin) incubated for 1 hr in presence of ATP by ADP-Glo kinase assay
pIC50 here is simply -log10 of the concentration when that concentration is written in mol/L.

Solved cases below.
mol	quantity	experimentalResult
C[C@H](NC(=O)c1ccc(-c2ccc(NS(C)(=O)=O)nc2)cc1)C(=O)Nc1ccc(Cl)c(C(F)(F)F)c1	pIC50	5.42
C[C@H](NC(=O)c1ccc(-c2ccc(NC(=O)C(C)(C)C)nc2)cc1)C(=O)Nc1ccc(Cl)c(C(F)(F)F)c1	pIC50	7.39
CC(=O)Nc1ccc(-c2ccc(C(=O)N[C@H]3CN[C@@H](C(=O)Nc4ccc(Cl)c(C(F)(F)F)c4)C3)cc2)cn1	pIC50	4.46
CCN(CC)C(=O)c1cncc(-c2ccc(C(=O)N[C@H]3CN[C@@H](C(=O)Nc4ccc(Cl)c(C(F)(F)F)c4)C3)cc2)c1	pIC50	5.13
O=C(NC1CC1)c1cncc(-c2ccc(C(=O)N[C@H]3CN[C@@H](C(=O)Nc4ccc(Cl)c(C(F)(F)F)c4)C3)cc2)c1	pIC50	4.21

// switching to the query compound
Checklist item: pIC50 tested on Bcr/Abl fusion protein (Homo sapiens), entry "C[C@H](NC(=O)c1cccc(-c2cncc(C(=O)NCCN(C)C)c2)c1)C(=O)Nc1ccc(Cl)c(C(F)(F)F)c1" , value?
6.19

###

test system: K562; experiment: Antiproliferative activity against human K562 cells assessed as inhibition of cell proliferation incubated for 48 hrs by MTT assay; type: functional, cell-based; conditions: K562, 48 h
quantity: log10 of IC50 (log10 of the value in µM)
Could you please treat all values as log10 of IC50 in µM?

A selection of reference data follows.
mol	experimentalResult
C[C@H](NC(=O)c1ccc(-c2cncc(C(=O)NCCN(C)C)c2)cc1)C(=O)Nc1ccc(Cl)c(C(F)(F)F)c1	0.67
O=C(NC1CC1)c1cncc(-c2cccc(C(=O)N[C@H]3CN[C@@H](C(=O)Nc4ccc(Cl)c(C(F)(F)F)c4)C3)c2)c1	1.44
CC(=O)Nc1ccc(-c2ccc(C(=O)N[C@H]3CN[C@@H](C(=O)Nc4ccc(Cl)c(C(F)(F)F)c4)C3)cc2)cn1	1.36

Reported log10 of IC50 for "CCN(CC)C(=O)c1cncc(-c2cccc(C(=O)N[C@@H](C)C(=O)Nc3ccc(Cl)c(C(F)(F)F)c3)c2)c1" : what is it?
1.48

Likewise for "CC(C)(C)C(=O)Nc1ccc(-c2ccc(C(=O)N[C@H]3CN[C@@H](C(=O)Nc4ccc(Cl)c(C(F)(F)F)c4)C3)cc2)cn1" ?
1.06

Do the same for "C[C@H](NC(=O)c1cccc(-c2cncc(C(=O)NCCN(C)C)c2)c1)C(=O)Nc1ccc(Cl)c(C(F)(F)F)c1" please
0.90

Likewise for "CN(C)CCNC(=O)c1cncc(-c2ccc(C(=O)N[C@H]3CN[C@@H](C(=O)Nc4ccc(Cl)c(C(F)(F)F)c4)C3)cc2)c1" ?
0.66

Next record, please: "CC(=O)Nc1ccc(-c2cccc(C(=O)N[C@@H](C)C(=O)Nc3ccc(Cl)c(C(F)(F)F)c3)c2)cn1"
1.63

###

target: Bcr/Abl fusion protein (Homo sapiens, UniProt P00519, T315I); experiment: Inhibition of wild type Bcr-Abl T315I mutant (unknown origin) incubated for 1 hr in presence of ATP by ADP-Glo kinase assay
Catalogue of molecules with associated IC50
Return type: number; implicit unit µM.

mol	unitName	experimentalResult
CCN(CC)C(=O)c1cncc(-c2cccc(C(=O)N[C@H]3CN[C@@H](C(=O)Nc4ccc(Cl)c(C(F)(F)F)c4)C3)c2)c1	µM	42.7
CS(=O)(=O)Nc1ccc(-c2ccc(C(=O)N[C@H]3CN[C@@H](C(=O)Nc4ccc(Cl)c(C(F)(F)F)c4)C3)cc2)cn1	µM	36.9

Request - read-out IC50 | tested on Bcr/Abl fusion protein (Homo sapiens, UniProt P00519, T315I) | molecule "C[C@H](NC(=O)c1cccc(-c2ccc(N)nc2)c1)C(=O)Nc1ccc(Cl)c(C(F)(F)F)c1"
86.8

Would you kindly repeat that for "C[C@H](NC(=O)c1cccc(-c2cncc(C(=O)NC3CC3)c2)c1)C(=O)Nc1ccc(Cl)c(C(F)(F)F)c1" ?
7.83

Try the molecule "Nc1ccc(-c2ccc(C(=O)N[C@H]3CN[C@@H](C(=O)Nc4ccc(Cl)c(C(F)(F)F)c4)C3)cc2)cn1"
14.1

Then this molecule: "CCN(CC)C(=O)c1cncc(-c2cccc(C(=O)N[C@@H](C)C(=O)Nc3ccc(Cl)c(C(F)(F)F)c3)c2)c1"
86

// same read-out, input: "C[C@H](NC(=O)c1cccc(-c2ccc(NS(C)(=O)=O)nc2)c1)C(=O)Nc1ccc(Cl)c(C(F)(F)F)c1"
129

Also "O=C(NC1CC1)c1cncc(-c2ccc(C(=O)N[C@H]3CN[C@@H](C(=O)Nc4ccc(Cl)c(C(F)(F)F)c4)C3)cc2)c1" ?
39

How about "O=C(NC1CC1)c1cncc(-c2cccc(C(=O)N[C@H]3CN[C@@H](C(=O)Nc4ccc(Cl)c(C(F)(F)F)c4)C3)c2)c1" ?
26.6

###

target: Bcr/Abl fusion protein (Homo sapiens, UniProt P00519, T315I); test: Inhibition of wild type Bcr-Abl T315I mutant (unknown origin) incubated for 1 hr in presence of ATP by ADP-Glo kinase assay
quantity: IC50
Respond with the figure and its unit, in that order.

mol	targetSystem	IC50
C[C@H](NC(=O)c1ccc(-c2ccc(NC(=O)C(C)(C)C)nc2)cc1)C(=O)Nc1ccc(Cl)c(C(F)(F)F)c1	Bcr/Abl fusion protein (Homo sapiens, UniProt P00519, T315I)	0.53 µM
CC(C)(C)C(=O)Nc1ccc(-c2ccc(C(=O)N[C@H]3CN[C@@H](C(=O)Nc4ccc(Cl)c(C(F)(F)F)c4)C3)cc2)cn1	Bcr/Abl fusion protein (Homo sapiens, UniProt P00519, T315I)	50.3 µM
CCN(CC)C(=O)c1cncc(-c2ccc(C(=O)N[C@@H](C)C(=O)Nc3ccc(Cl)c(C(F)(F)F)c3)cc2)c1	Bcr/Abl fusion protein (Homo sapiens, UniProt P00519, T315I)	59.9 µM
CN(C)CCNC(=O)c1cncc(-c2ccc(C(=O)N[C@H]3CN[C@@H](C(=O)Nc4ccc(Cl)c(C(F)(F)F)c4)C3)cc2)c1	Bcr/Abl fusion protein (Homo sapiens, UniProt P00519, T315I)	22.1 µM
CC(=O)Nc1ccc(-c2cccc(C(=O)N[C@@H](C)C(=O)Nc3ccc(Cl)c(C(F)(F)F)c3)c2)cn1	Bcr/Abl fusion protein (Homo sapiens, UniProt P00519, T315I)	38.6 µM

Look up IC50: "CN(C)CCNC(=O)c1cncc(-c2cccc(C(=O)N[C@H]3CN[C@@H](C(=O)Nc4ccc(Cl)c(C(F)(F)F)c4)C3)c2)c1"
21.7 µM

Another compound: "C[C@H](NC(=O)c1cccc(-c2ccc(NC(=O)C(C)(C)C)nc2)c1)C(=O)Nc1ccc(Cl)c(C(F)(F)F)c1"
244 µM

Same again, this time with "C[C@H](NC(=O)c1cccc(-c2cncc(C(=O)NCCN(C)C)c2)c1)C(=O)Nc1ccc(Cl)c(C(F)(F)F)c1"
2.41 µM
